Entries annotated with measured CL/F
Assay: Single-dose pharmacokinetics in BALB/c mice
Format: in vivo
Details: BALB/c, mouse, plasma, im, BALB/c mice, alone (GC376 111 mg/kg; GS441524 67 mg/kg)
MEASUREMENT TYPE: CL/F (mL/min/kg)

# COMPOUND, TEST VALUE
records = [
    ("CC(C)CC(NC(=O)OCc1ccccc1)C(=O)NC(CC1CCNC1=O)C(O)S(=O)(=O)O (centres unmarked) [GC376]", 33.1),
    ("N#C[C@@]1(c2ccc3c(N)ncnn23)O[C@H](CO)[C@@H](O)[C@H]1O [GS441524]", 10.7),
]

----------
Experiment: Single-dose pharmacokinetics in SD rats
Type: in vivo
Settings: Sprague-Dawley, rat, plasma, im, 33.5 mg/kg, i.m., combined (GC376 55.5 + GS441524 33.5 mg/kg), plasma, read-out: MRT0−t
MEASUREMENT TYPE: MRT last (h)

# COMPOUND, READOUT UNITS, TEST VALUE
measured = [
    ("N#C[C@@]1(c2ccc3c(N)ncnn23)O[C@H](CO)[C@@H](O)[C@H]1O [GS441524]", "h", 6.03),
]

----------
Experiment: Single-dose pharmacokinetics in BALB/c mice
Assay type: in vivo
Conditions: BALB/c, mouse, plasma, im, BALB/c mice, i.m., combined (GC376 55.5 + GS441524 33.5 mg/kg), plasma; read-out: MRT0−∞
MEASUREMENT TYPE: MRT inf

# COMPOUND, MEASUREMENT TYPE, TEST VALUE
records = [
    ("CC(C)CC(NC(=O)OCc1ccccc1)C(=O)NC(CC1CCNC1=O)C(O)S(=O)(=O)O (stereo not shown)", "MRT inf", "52.8 min"),
]

----------
Assay: Single-dose pharmacokinetics in BALB/c mice
Type: in vivo
Details: BALB/c, mouse, plasma, im, BALB/c mice, i.m., combined (GC376 55.5 + GS441524 33.5 mg/kg), plasma
Experimental: Healthy SPF BALB/c mice (7-8 weeks) and SD rats (4-6 weeks) were used in a single-dose PK study. […] Plasma drug concentration was analyzed using LC-MS/MS. Pharmacokinetic parameters were calculated using WinNonlin software (version 6.4), and a non-atrioventricular model was used for data fitting. The data were analyzed using Microsoft Excel 2016 and GraphPad Prism 7.0.
MEASUREMENT TYPE: AUC(0-t)

# MOLECULE, TEST VALUE
records = [
    ("CC(C)CC(NC(=O)OCc1ccccc1)C(=O)NC(CC1CCNC1=O)C(O)S(=O)(=O)O (stereo not shown) [GC376]", "27800 ng·h/mL"),
]

----------
Experiment: Cell viability (Cell Titer-Glo) in Vero E6 cells
Assay type: cell-based
Conditions: African green monkey
MEASUREMENT TYPE: CC50 at 24 h

# MOLECULE, TEST VALUE
measured = [
    ("CC(C)CC(NC(=O)OCc1ccccc1)C(=O)NC(CC1CCNC1=O)C(O)S(=O)(=O)O (centres unmarked) [GC376]", "> 250 µM"),
    ("N#C[C@@]1(c2ccc3c(N)ncnn23)O[C@H](CO)[C@@H](O)[C@H]1O [GS441524]", "> 250 µM"),
]

----------
Assay: Single-dose pharmacokinetics in BALB/c mice
Assay type: in vivo
Conditions: BALB/c, mouse, plasma, im, BALB/c mice, alone (GC376 111 mg/kg; GS441524 67 mg/kg)
AUC(0-t) by entry:

# COMPOUND, AUC(0-t), ng·h/mL
measured = [
    ("N#C[C@@]1(c2ccc3c(N)ncnn23)O[C@H](CO)[C@@H](O)[C@H]1O [GS441524]", 107000),
    ("CC(C)CC(NC(=O)OCc1ccccc1)C(=O)NC(CC1CCNC1=O)C(O)S(=O)(=O)O (centres unmarked) [GC376]", 55300),
]

----------
Measured MRT inf, listed per entry for reference.
Test: Single-dose pharmacokinetics in SD rats
Type: in vivo
Details: Sprague-Dawley, rat, plasma, im, alone (GC376 111 mg/kg; GS441524 67 mg/kg), plasma, read-out: MRT0−∞
Protocol: Healthy SPF BALB/c mice (7-8 weeks) and SD rats (4-6 weeks) were used in a single-dose PK study. […] Plasma drug concentration was analyzed using LC-MS/MS. Pharmacokinetic parameters were calculated using WinNonlin software (version 6.4), and a non-atrioventricular model was used for data fitting. The data were analyzed using Microsoft Excel 2016 and GraphPad Prism 7.0.
MEASUREMENT TYPE: MRT inf (h)

# COMPOUND, MEASUREMENT TYPE, TEST VALUE
data = [
    ("CC(C)CC(NC(=O)OCc1ccccc1)C(=O)NC(CC1CCNC1=O)C(O)S(=O)(=O)O (centres unmarked)", "MRT inf", 6.06),
    ("N#C[C@@]1(c2ccc3c(N)ncnn23)O[C@H](CO)[C@@H](O)[C@H]1O", "MRT inf", 4.78),
]

----------
Assay: Single-dose pharmacokinetics in BALB/c mice
Assay type: in vivo
Details: BALB/c, mouse, plasma, im, BALB/c mice, i.m., combined (GC376 55.5 + GS441524 33.5 mg/kg), plasma; read-out: MRT0−t

# COMPOUND, MRT last
rows = [
    ("CC(C)CC(NC(=O)OCc1ccccc1)C(=O)NC(CC1CCNC1=O)C(O)S(=O)(=O)O (stereo not shown)", "47.4 min"),
]

----------
Assay: Single-dose pharmacokinetics in SD rats
Format: in vivo
Conditions: Sprague-Dawley, rat, plasma, im
MEASUREMENT TYPE: Vd/F (L/kg)

# COMPOUND, MEASUREMENT TYPE, READOUT UNITS, TEST VALUE
records = [
    ("CC(C)CC(NC(=O)OCc1ccccc1)C(=O)NC(CC1CCNC1=O)C(O)S(=O)(=O)O (stereo not shown)", "Vd/F", "L/kg", 5.17),
]

----------
Assay: Single-dose pharmacokinetics in SD rats
Assay type: in vivo
Settings: Sprague-Dawley, rat, plasma, im, 33.5 mg/kg
Description: Healthy SPF BALB/c mice (7-8 weeks) and SD rats (4-6 weeks) were used in a single-dose PK study. […] Plasma drug concentration was analyzed using LC-MS/MS. Pharmacokinetic parameters were calculated using WinNonlin software (version 6.4), and a non-atrioventricular model was used for data fitting. The data were analyzed using Microsoft Excel 2016 and GraphPad Prism 7.0.
MEASUREMENT TYPE: Tmax (h)

# COMPOUND, MEASUREMENT TYPE, TEST VALUE
records = [
    ("N#C[C@@]1(c2ccc3c(N)ncnn23)O[C@H](CO)[C@@H](O)[C@H]1O", "Tmax", 3.4),
]

----------
Test: Single-dose pharmacokinetics in SD rats
Format: in vivo
Conditions: Sprague-Dawley, rat, plasma, im
Description: Healthy SPF BALB/c mice (7-8 weeks) and SD rats (4-6 weeks) were used in a single-dose PK study. […] Plasma drug concentration was analyzed using LC-MS/MS. Pharmacokinetic parameters were calculated using WinNonlin software (version 6.4), and a non-atrioventricular model was used for data fitting. The data were analyzed using Microsoft Excel 2016 and GraphPad Prism 7.0.

# MOLECULE, READOUT UNITS, AUC(0-t)
data = [
    ("CC(C)CC(NC(=O)OCc1ccccc1)C(=O)NC(CC1CCNC1=O)C(O)S(=O)(=O)O (stereo not shown)", "ng·h/mL", 42400),
]

----------
Assay: Single-dose pharmacokinetics in BALB/c mice
Type: in vivo
Settings: BALB/c, mouse, plasma, im, BALB/c mice, i.m., combined (GC376 55.5 + GS441524 33.5 mg/kg), plasma
Protocol: Healthy SPF BALB/c mice (7-8 weeks) and SD rats (4-6 weeks) were used in a single-dose PK study. […] Plasma drug concentration was analyzed using LC-MS/MS. Pharmacokinetic parameters were calculated using WinNonlin software (version 6.4), and a non-atrioventricular model was used for data fitting. The data were analyzed using Microsoft Excel 2016 and GraphPad Prism 7.0.
MEASUREMENT TYPE: Tmax (min)

# COMPOUND, MEASUREMENT TYPE, TEST VALUE
records = [
    ("CC(C)CC(NC(=O)OCc1ccccc1)C(=O)NC(CC1CCNC1=O)C(O)S(=O)(=O)O (stereo not shown)", "Tmax", 15),
]

----------
Assay: Single-dose pharmacokinetics in BALB/c mice
Assay type: in vivo
Conditions: BALB/c, mouse, plasma, im, 33.5 mg/kg, BALB/c mice, i.m., combined (GC376 55.5 + GS441524 33.5 mg/kg), plasma

# COMPOUND, Vd/F
measured = [
    ("N#C[C@@]1(c2ccc3c(N)ncnn23)O[C@H](CO)[C@@H](O)[C@H]1O [GS441524]", "1.68 L/kg"),
]

----------
Experiment: Single-dose pharmacokinetics in SD rats
Type: in vivo
Conditions: Sprague-Dawley, rat, plasma, im, alone (GC376 111 mg/kg; GS441524 67 mg/kg)
Item-by-item account of CL/F

# COMPOUND, CL/F, mL/min/kg
rows = [
    ("N#C[C@@]1(c2ccc3c(N)ncnn23)O[C@H](CO)[C@@H](O)[C@H]1O", 7.05),
    ("CC(C)CC(NC(=O)OCc1ccccc1)C(=O)NC(CC1CCNC1=O)C(O)S(=O)(=O)O (centres unmarked)", 20.1),
]
